Data origin: PubChem BioAssay AID1963974

Here, each record is paired with measured viability, T/C data.
# System: 648629-189-R-J1-PDC spheroids with HUVEC/MSC, viability;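 further: spheroids exposed to agents for seven days before reading; percent of vehicle control luminescence where 100% = DMSO treated spheroids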
# assay-remarks: Anticancer human tumor 648629-189-R-J1-PDC patient-derived bladder carcinoma cell line growth inhibition [PI3K]
# reported-conditions: second compound 0.0316 µM; first compound 0.00949 µM; hits give low values
measured-endpoint: viability, T/C (%)

compound="Cn1cnc2c(F)c(Nc3ccc(Br)cc3Cl)c(C(=O)NOCCO)cc21 + COc1c(OCCCN2CCOCC2)ccc2c3n(c(=NC(=O)c4cnc(N)nc4)nc12)CCN3" measured_endpoint="viability, T/C" reading=90
compound="Cn1cnc2c(F)c(Nc3ccc(Br)cc3Cl)c(C(=O)NOCCO)cc21 + CC(Nc1ncnc2nc[nH]c12)c1cc2cccc(Cl)c2c(=O)n1-c1ccccc1" measured_endpoint="viability, T/C" reading=101
compound="Cn1cnc2c(F)c(Nc3ccc(Br)cc3Cl)c(C(=O)NOCCO)cc21 + CC(Nc1ccc2c(c1)OCCn1cc(N3C(=O)OCC3C(F)F)nc1-2)C(N)=O" measured_endpoint="viability, T/C" reading=98.5
compound="Cn1cnc2c(F)c(Nc3ccc(Br)cc3Cl)c(C(=O)NOCCO)cc21 + Cc1nc(NC(=O)N2CCCC2C(N)=O)sc1-c1ccnc(C(C)(C)C(F)(F)F)c1" measured_endpoint="viability, T/C" reading=94.3
